Exercise: for every item that follows, state its recorded Population Mitochondria Different-Phenotype (%).
System: HEK-293T
Experiment: Multiplex assay against HEK293T
Type: toxicity, cell-based
Settings: human, 12 h, 1 µM, compound concentration 1 uM, replicate 1
Just the number in %, nothing appended.

What measured Population Mitochondria Different-Phenotype (%) goes with C=CC(=O)Nc1cc2c(Nc3ccc(F)c(Cl)c3)ncnc2cc1OCCCN1CCOCC1.Cl.Cl [CANERTINIB DIHYDROCHLORIDE] ?
76

And then CC(C)(O)CNc1ncc(-c2ccnc(Nc3ccnc(Cl)c3)n2)c(CC2CC2)n1 , what is it?
90

Also need C=CC(=O)Nc1cccc(C(=O)Nc2ccc(Nc3cc(-c4[nH]c(SC)nc4C)ccn3)cc2)c1 , thanks.
80

Record: C[C@@]1(C(=O)Nc2ccc(F)nc2)CCCN1c1nc(Nc2cc(C3CC3)n[nH]2)c2cccn2n1
32
